target: T1, Gly-Gly-Gly-COOH
T1 chain: GGG
Non-standard residues stand in square brackets, D forms with d. No end group written: not given here. *: point of attachment. Dnp = O=[N+]([O-])c1ccc(*)c([N+](=O)[O-])c1; 2Abz = Nc1ccccc1C(=O)O
endpoint: Km,GGG (µM); listed substrate LPETG

protein="evolved sortase A (eSrtA) (enzyme) QAKPQIPKDKSKVAGYIEIPDADIKEPVYPGPATREQLNRGVSFAEENESLDDQNISIAGHTFIDRPNYQFTNLKAAKKGSMVYFKVGNETRKYKMTSIRNVKPTAVEVLDEQKGKDKQLTLITCDDYNEETGVWETRKIFVATEVK" unit_spec=µM readout_value=1620
protein="wild-type S. aureus sortase A (protein) QAKPQIPKDKSKVAGYIEIPDADIKEPVYPGPATPEQLNRGVSFAEENESLDDQNISIAGHTFIDRPNYQFTNLKAAKKGSMVYFKVGNETRKYKMTSIRDVKPTDVEVLDEQKGKDKQLTLITCDDYNEKTGVWEKRKIFVATEVK" unit_spec=µM readout_value=211
protein="eSrtA(2A-9) (protein) QAKPQIPKDKSKVAGYIEIPDADIKEPVYPGPATREQLNRGVCFHDENESLDDQNISIAGHTFIDRPNYQFTNLKAAKPGSMVYFKVGNETRIYKMTSIRKVHPNAVEVLDEQEGKDKQLTLVTCDDYNEETGVWESRKIFVATEVK" unit_spec=µM readout_value=585
protein="eSrtA(4S-9) (protein) QAKPQIPKDKSKVAGYIEIPDADIKEPVYPGPATREQLDRGVCFVEENESLDDQNISITGHTAIDRPNYQFTNLRAAKKGSMVYLKVGNETRKYKMTSIRNVKPTAVEVLDEQKGKDKQLTLVTCDDYNFETGVWETRKIFVATEVK" unit_spec=µM readout_value=98000
